Origin of the recorded values: paper PMC2690590

system-tested: DP401 (DPA1*0103/DPB1*0401) (Homo sapiens, UniProt P04440+P20036)
Sequence (P20036 with tags, fused parts or gaps C154S): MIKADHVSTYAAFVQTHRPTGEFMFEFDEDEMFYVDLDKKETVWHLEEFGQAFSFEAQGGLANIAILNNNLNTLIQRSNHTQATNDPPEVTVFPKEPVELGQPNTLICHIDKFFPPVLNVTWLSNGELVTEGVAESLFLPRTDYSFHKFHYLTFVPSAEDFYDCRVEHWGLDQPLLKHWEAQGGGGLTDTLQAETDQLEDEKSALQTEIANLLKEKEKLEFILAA
Sequence (as listed by the source): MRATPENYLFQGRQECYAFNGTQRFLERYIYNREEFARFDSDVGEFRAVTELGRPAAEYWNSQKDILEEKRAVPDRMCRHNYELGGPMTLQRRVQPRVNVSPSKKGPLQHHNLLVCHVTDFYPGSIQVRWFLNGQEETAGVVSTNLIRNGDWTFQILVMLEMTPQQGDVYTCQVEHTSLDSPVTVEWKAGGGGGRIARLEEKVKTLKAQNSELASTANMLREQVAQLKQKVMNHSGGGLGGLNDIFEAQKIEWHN
test-description: Direct LOCI peptide-MHC-II binding assay, DP401
Where no end group is shown, it is not given here.

{"polymer-sequence": "WMARRHAER [Brucella]", "Kd": "> 5 µM"}

====

system-tested: DR3 (DRA*0101/DRB1*0301) (Homo sapiens, UniProt P01903+P01911, A100K/A102G/A103R/A169T/F55Y/I96L/K41T/L162R/M171V/P40S/Q125H/Q178H/Q39Y/R42S/S66N/T106N/T262R/W38E/Y61H)
Construct: DRA*01011-181LZFos; DRB1*03011-190LZJunBSP; made in house
test-description: Direct LOCI peptide-MHC-II binding assay, DR3
Where no end group is shown, it is not given here.
quantity-name: Kd

{"polymer-sequence": "WMARRHAER [Brucella]", "meas-value": "> 5 µM"}
